The reported numbers originate from patent US8859026B2.

- measured.on: piglet OBP (pIOBP), Genbank AF436848, Uniprot Q8WMH1-1, SEQ ID NO: 3 (codon optimized) / SEQ ID NO: 4 (non-optimized), recombinant (Sus scrofa, UniProt P81245)
- Construct: S. cerevisiae alpha-mating factor secretion signal (pPIC9) (N); made in house; host or cells: Pichia pastoris GS115 (vector pPIC9)
- Sequence (P81245 with tags, fused parts or gaps): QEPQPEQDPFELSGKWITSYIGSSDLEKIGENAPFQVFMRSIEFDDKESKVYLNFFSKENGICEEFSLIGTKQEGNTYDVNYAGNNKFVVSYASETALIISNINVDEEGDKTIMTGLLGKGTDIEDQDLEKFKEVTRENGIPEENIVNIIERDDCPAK
- procedure.details: 1-AMA fluorescence binding assay, piglet OBP
- Parameters: species or system pig (piglet/prepubertal)
- experimental.context: pH 5.0
result.type: Kd
Answer shape: numeric part, then the unit.

So what's the measured Kd for this one? "Nc1cccc2cc3ccccc3cc12"
1.45 µM

###

- measured.on: piglet OBP (Sus scrofa, UniProt P81245)
- Construct: made in house; host or cells: Pichia pastoris GS115 (pPIC9, alpha-mating factor secretion signal)
- Sequence (P81245 with tags, fused parts or gaps): as above
- procedure.details: Competitive fluorescent binding assay: displacement of 1-AMA from piglet OBP by odorants IPMP and IBMP
- Design: species or system porcine
- experimental.context: pH 3; read-out: apparent Kd for pIOBP
- Text: The interaction of odorants with AMA complex was examined by monitoring the decrease in fluorescence intensity of protein/1-AMA complex upon the addition of competitor compounds. […] The affinity of OBPs for odorants was estimated by plotting the decrease of intensity of 1-AMA fluorescence at the emission maximum, (22). […]
result.type: Kd (nM)
// units = nM; emit number, no label

Any idea what Kd came out for "COc1nccnc1C(C)C" on piglet OBP (Sus scrofa, UniProt P81245)?
2100

###

- measured.on: mouse MUPII (mMUPII), Genbank AJ309921, Uniprot P11589, SEQ ID NO: 5, recombinant (Mus musculus, UniProt P11589)
- Construct: no tag mentioned
- procedure.details: 1-AMA fluorescence binding assay, mouse MUPII
- experimental.context: Kd, pH 3.0
result.type: pKd
Formally, pKd is defined as -log10 of the concentration c, with c in mol/L.

# get_value(readout='pKd', item= "Nc1cccc2cc3ccccc3cc12" )
5.46

###

- measured.on: mouse MUPII (mMUPII), Genbank AJ309921, Uniprot P11589, SEQ ID NO: 5, recombinant (Mus musculus, UniProt P11589)
- Construct: no tag mentioned
- procedure.details: Competitive displacement of 1-AMA, mouse MUPII
- Assay type: binding
- experimental.context: displacement of 1-AMA; pH 7.2; 2 uM protein, 10 uM 1-AMA
- Description: Competitive binding assays were done with 2 uM protein pre equilibrated with five fold 1-AMA concentration (10 uM). Fluorescence decay of the protein/1-AMA complex is expressed as a ratio of initial and final fluorescence against the total competitor concentration: (I−Imin)/(Io−Imin) where Io=fluorescence intensity of the protein/1-AMA complex, Imin=fluorescence intensity at saturation, and I=fluorescence intensity at a given competitor concentration. […]
result.type: IC50 (µM)
The answer is to be given in µM; state only the numeric part.

Entry COc1nccnc1CC(C)C [IBMP, 2-isobutyl-3-methoxypyrazine] has what IC50?
8.07

###

- measured.on: mouse MUPII (mMUPII), Genbank AJ309921, Uniprot P11589, SEQ ID NO: 5, recombinant (Mus musculus)
- Construct: no tag mentioned
- Sequence (P11589 19-180): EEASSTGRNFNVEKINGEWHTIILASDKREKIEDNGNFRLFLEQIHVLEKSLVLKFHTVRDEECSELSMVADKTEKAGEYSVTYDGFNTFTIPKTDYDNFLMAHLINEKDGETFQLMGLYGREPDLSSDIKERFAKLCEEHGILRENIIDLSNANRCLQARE
- procedure.details: Competitive displacement of 1-AMA, mouse MUPII
- Assay type: binding
- experimental.context: displacement of 1-AMA; pH 3.0; 2 uM protein, 10 uM 1-AMA
result.type: pIC50
Please treat pIC50 as minus the base-10 logarithm of the molar concentration.

// pIC50 lookup, key: "COc1nccnc1CC(C)C"
5.47

###

- measured.on: rat OBP1F (rat OBP variant 1F), recombinant (Rattus norvegicus, UniProt P08937)
- Construct: made in house; host or cells: Pichia pastoris (vector pPIC9; recombinant strain provided by J.-C; Pernollet, INRA)
- procedure.details: 1-AMA fluorescence binding assay, rat OBP-1F
- experimental.context: pH 5.0
result.type: Kd
Quote the value and follow it with the unit of measurement.

If you can, please state the reported Kd value of Nc1cccc2cc3ccccc3cc12 [1-AMA, 1-aminoanthracene] .
1.7 µM

###

- measured.on: piglet OBP (pIOBP), Genbank AF436848, Uniprot Q8WMH1-1, SEQ ID NO: 3 (codon optimized) / SEQ ID NO: 4 (non-optimized), recombinant (Sus scrofa, UniProt P81245)
- Construct: S. cerevisiae alpha-mating factor secretion signal (pPIC9) (N); made in house; host or cells: Pichia pastoris GS115 (vector pPIC9)
- procedure.details: 1-AMA fluorescence binding assay, piglet OBP
- Set-up: species or system pig (piglet/prepubertal)
- experimental.context: pH 7.2
result.type: Kd (nM)
Numeric only. Scale: nM

# Kd lookup, item "Nc1cccc2cc3ccccc3cc12"
1260

###

- measured.on: mouse MUPII (mMUPII), Genbank AJ309921, Uniprot P11589, SEQ ID NO: 5, recombinant (Mus musculus, UniProt P11589)
- Construct: no tag mentioned
- Sequence (P11589 19-180): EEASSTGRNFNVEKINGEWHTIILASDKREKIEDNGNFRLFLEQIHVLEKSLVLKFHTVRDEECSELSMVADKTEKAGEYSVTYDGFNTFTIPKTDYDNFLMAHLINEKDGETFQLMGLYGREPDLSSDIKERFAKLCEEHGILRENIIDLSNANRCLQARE
- procedure.details: 1-AMA fluorescence binding assay, mouse MUPII
- experimental.context: Kd, pH 7.2
result.type: Kd (nM)
Give the number; nM is assumed, so skip it.

Fill in: Kd of "Nc1cccc2cc3ccccc3cc12" is ___
490
